# TESTED_TARGET: Kras and SOS1 (biotin-tagged human Kras loaded with GDP, His-tagged human SOS1) (Homo sapiens, UniProt P01116, G12D)
# Construct: made in house; host or cells: E. coli (stated for Kras only)
# Sequence (P01116 1-188 isoform P01116-2 G12D): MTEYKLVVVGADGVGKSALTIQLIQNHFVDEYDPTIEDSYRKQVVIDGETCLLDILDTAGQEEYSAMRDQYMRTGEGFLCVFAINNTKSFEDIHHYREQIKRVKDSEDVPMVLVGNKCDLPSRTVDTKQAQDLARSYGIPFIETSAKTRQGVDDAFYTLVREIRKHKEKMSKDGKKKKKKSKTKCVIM
# ASSAY_COMMENT: Protein-protein interaction inhibition between Kras and SOS1 (KrasGl2D-SOS PPI) using AlphaScreen
# Format: binding
# CONDITION_LABEL: AlphaScreen; biotin-tagged human Kras loaded with GDP, His-tagged human SOS1; read-out: KRAS G12D-SOS PPI IC50
# Protocol: Protein-Protein Interaction Inhibition Between Kras and SOS1 (KrasGl2D-SOS PPI) Using AlphaScreen Protein-protein interaction inhibition (PPI) between Kras and SOS1 was measured by energy transfer from nickel-conjugated donor beads to streptavidin-conjugated acceptor beads using biotin-tagged human Kras expressed in E. coli and loaded with GDP after purification and His-tagged human SOS1 enzyme. […]
Positions of bridges follow the written chain, without caps; N, C: chain ends. Non-standard residues stand in square brackets, D forms with d. Residues, ends and D or L forms follow the SMILES beside them. *: point of attachment. hPhe(3-Cl-4-CF3) = N[C@@H](CCc1ccc(C(F)(F)F)c(Cl)c1)C(=O)O; Ala(cPent) = N[C@@H](CC1CCCC1)C(=O)O; NMeCha = CN[C@@H](CC1CCCCC1)C(=O)O; NMeChg = CN[C@H](C(=O)O)C1CCCCC1; NMeD = CN[C@@H](CC(=O)O)C(=O)O; NMeL = CN[C@@H](CC(C)C)C(=O)O; NMeV = CN[C@H](C(=O)O)C(C)C; d(β3hA) = C[C@@H](N)CC(=O)O; dPip = O=C(O)[C@H]1CCCCN1; NMeA = CN[C@@H](C)C(=O)O; Piperidide = C1CCN(*)CC1; Ac5c = NC1(C(=O)O)CCCC1; Aze = O=C(O)[C@@H]1CCN1; Sar = CNCC(=O)O
Listed here are molecules together with their documented IC50.
// units = nM; emit number, no label

{"MOLECULE": "CC[C@H](C)[C@@H]1NC(=O)[C@H](C)N(C)C(=O)C[C@@H](C)NC(=O)[C@H](C(C)C)N(C)C(=O)C2(CCCC2)NC(=O)[C@@H]2CCCN2C(=O)[C@H](CCc2ccc(C(F)(F)F)c(Cl)c2)NC(=O)[C@H]2CCCCN2C(=O)[C@H](CC2CCCCC2)N(C)C(=O)[C@@H]2CCN2C(=O)CN(C)C1=O [Compound 267] (cyclo([Ac5c][NMeV][d(β3hA)][NMeA]I[Sar][Aze][NMeCha][dPip][hPhe(3-Cl-4-CF3)]P))", "IC50 [nM]": 130}

Now look at this one.
Determine from records and report IC50 for CC(C)C[C@H]1C(=O)N[C@@H](CC2CCCC2)C(=O)N(C)CC(=O)N(C)CC(=O)N(C)[C@@H](CC2CCCCC2)C(=O)N(C)CC(=O)N[C@@H](CCc2ccc(C(F)(F)F)c(Cl)c2)C(=O)N2CCC[C@H]2C(=O)NC2(CCCC2)C(=O)N(C)[C@@H](C2CCCCC2)C(=O)N(C)[C@H](C(=O)N2CCCCC2)CC(=O)N1C [Compound 1838] ([NMeL][Ala(cPent)][Sar][Sar][NMeCha][Sar][hPhe(3-Cl-4-CF3)]P[Ac5c][NMeChg][NMeD]-Piperidide; lactam N-11)
2.6
